- measurement-target: 5-HT1A receptor (Rattus norvegicus, UniProt P19327)
- Sequence (P19327 whole entry): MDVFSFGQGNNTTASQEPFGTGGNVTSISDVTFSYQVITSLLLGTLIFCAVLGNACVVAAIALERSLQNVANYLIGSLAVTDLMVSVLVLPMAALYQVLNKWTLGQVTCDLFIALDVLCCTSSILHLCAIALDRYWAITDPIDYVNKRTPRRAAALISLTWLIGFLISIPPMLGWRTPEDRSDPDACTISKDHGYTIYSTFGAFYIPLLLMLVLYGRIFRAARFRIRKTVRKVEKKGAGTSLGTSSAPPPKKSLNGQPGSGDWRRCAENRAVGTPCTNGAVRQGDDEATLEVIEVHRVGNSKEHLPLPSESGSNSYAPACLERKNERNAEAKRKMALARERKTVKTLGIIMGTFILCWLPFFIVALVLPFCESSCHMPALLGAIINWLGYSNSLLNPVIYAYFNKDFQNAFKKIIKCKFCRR
metric-name: IC50 (nM)
Hi! Could you send only the number? It should be in nM, unit omitted.

Find IC50 (5-HT1A receptor (Rattus norvegicus, UniProt P19327)) for the entry COc1ccccc1C1CCN([C@H](C)CN(C(=O)C2CCCCC2)c2ccccn2)CC1 [Example 1]
3.5
